biological target: human KDR (human, UniProt P35968 20-1356); experiment: cell-based or functional assay
Sequence (P35968 20-1356): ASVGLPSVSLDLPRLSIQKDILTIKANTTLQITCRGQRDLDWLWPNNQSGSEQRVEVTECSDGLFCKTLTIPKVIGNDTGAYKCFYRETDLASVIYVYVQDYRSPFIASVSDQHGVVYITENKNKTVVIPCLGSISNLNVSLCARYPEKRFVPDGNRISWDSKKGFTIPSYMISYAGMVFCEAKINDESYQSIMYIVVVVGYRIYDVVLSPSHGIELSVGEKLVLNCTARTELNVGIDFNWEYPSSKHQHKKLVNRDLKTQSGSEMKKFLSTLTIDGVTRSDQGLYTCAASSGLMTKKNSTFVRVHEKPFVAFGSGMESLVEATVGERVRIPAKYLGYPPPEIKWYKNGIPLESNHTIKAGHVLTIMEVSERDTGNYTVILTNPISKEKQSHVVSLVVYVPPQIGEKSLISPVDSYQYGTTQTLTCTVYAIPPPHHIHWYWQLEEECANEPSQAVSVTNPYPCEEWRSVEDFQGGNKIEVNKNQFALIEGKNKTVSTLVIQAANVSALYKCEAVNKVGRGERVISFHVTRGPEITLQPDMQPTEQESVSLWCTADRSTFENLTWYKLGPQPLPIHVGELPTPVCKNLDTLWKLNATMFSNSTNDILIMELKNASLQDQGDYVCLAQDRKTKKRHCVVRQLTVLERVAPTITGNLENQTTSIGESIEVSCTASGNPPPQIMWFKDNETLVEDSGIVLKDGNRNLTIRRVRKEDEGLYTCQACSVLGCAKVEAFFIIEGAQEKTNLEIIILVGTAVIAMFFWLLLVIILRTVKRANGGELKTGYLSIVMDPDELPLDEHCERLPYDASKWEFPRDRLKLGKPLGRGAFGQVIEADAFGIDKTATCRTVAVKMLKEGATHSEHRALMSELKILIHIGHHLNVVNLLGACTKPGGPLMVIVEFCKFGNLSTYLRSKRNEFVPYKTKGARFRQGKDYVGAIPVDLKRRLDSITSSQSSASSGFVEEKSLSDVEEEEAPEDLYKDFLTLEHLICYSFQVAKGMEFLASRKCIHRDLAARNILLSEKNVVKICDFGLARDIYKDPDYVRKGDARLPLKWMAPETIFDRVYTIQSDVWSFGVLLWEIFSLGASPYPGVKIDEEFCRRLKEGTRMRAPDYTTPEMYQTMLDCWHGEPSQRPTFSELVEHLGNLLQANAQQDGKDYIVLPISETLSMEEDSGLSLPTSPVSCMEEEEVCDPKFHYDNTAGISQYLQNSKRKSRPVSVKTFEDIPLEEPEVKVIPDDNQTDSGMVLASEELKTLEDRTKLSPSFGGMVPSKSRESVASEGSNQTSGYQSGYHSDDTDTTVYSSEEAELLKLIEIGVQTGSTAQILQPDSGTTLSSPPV
Readings of 6-keto Prostaglandin F1α release, Maximum Inhibition (% Inhibition), Average for the listed binders
Quick note: give the figure in %, leave out the unit.

Exercise: # query: 6-keto Prostaglandin F1α release, Maximum Inhibition (% Inhibition), Average of entry 24B3 (antibody, V domains shown, Fully human monoclonal antibody from a XenoMouse hybridoma (IgG2 or IgG4 strain), purified) VH: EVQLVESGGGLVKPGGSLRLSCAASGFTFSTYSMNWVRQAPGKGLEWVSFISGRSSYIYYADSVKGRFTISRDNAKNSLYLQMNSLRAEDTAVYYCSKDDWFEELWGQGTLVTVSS VL: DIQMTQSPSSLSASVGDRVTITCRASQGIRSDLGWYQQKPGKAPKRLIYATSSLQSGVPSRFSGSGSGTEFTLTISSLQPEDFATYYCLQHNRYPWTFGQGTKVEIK
Solution: 54

Exercise: Try 33E1 (antibody, V domains shown, Fully human monoclonal antibody from a XenoMouse hybridoma (IgG2 or IgG4 strain), purified) VH: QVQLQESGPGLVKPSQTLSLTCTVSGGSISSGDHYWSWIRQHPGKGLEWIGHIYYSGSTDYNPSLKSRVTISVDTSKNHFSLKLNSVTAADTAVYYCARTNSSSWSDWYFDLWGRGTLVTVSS VL: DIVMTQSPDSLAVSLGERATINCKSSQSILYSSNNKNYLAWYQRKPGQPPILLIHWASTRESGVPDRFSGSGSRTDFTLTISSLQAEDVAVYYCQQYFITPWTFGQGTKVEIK next.
Solution: 90

Field: next binder
Exercise: Requested field: 6-keto Prostaglandin F1α release, Maximum Inhibition (% Inhibition), Average. Item: 33B1 (antibody, V domains shown, Fully human monoclonal antibody from a XenoMouse hybridoma (IgG2 or IgG4 strain), purified) VH: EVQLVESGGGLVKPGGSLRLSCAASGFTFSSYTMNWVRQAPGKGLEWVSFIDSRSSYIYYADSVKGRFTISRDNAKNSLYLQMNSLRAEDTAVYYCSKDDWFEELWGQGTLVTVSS VL: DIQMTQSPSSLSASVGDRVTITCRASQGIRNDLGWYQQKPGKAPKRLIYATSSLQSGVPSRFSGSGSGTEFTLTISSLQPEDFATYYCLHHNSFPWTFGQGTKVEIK
Solution: 53
